We begin with a simple list: items and their reported TGI.
System: SR leukemia
Assay: NCI tumour cell line growth inhibition, 48 h

Worked examples, 8 compounds total:
1) Cc1cc(C)cc(Nc2nnc3n2S(=O)(=O)c2cc(C#N)c(Cl)cc2S3)c1	3.42 µM
2) O=C1c2ccccc2S[C@@H](O)[C@@H]2CCCN12	> 100 µM
3) Cc1cc(=O)[nH]c(NNC(C#N)c2ccc(O)cc2)n1 (stereo not given)	> 100 µM
4) Cc1cccc(N2C(=O)C(Cl)=C(Cl)C2=O)c1	79.7 µM
5) C=C1C(=O)O[C@H]2[C@H]1CC/C(COC(=O)/C=C\C(=O)NCc1ccc(Cn3c(=O)sn(-c4ccc(C#N)cc4)c3=O)cc1)=C\CC[C@@]1(C)O[C@@H]21	50 µM
6) NS(=O)(=O)c1nnc(NC(=O)c2ccccc2)s1	> 100 µM
7) CCCCCCCCCCCCCCCCCc1cccc(OCOCCOC)c1CO	> 100 µM
8) N#CCCN(CCC#N)c1ccc(/C=C2\N=C(CN3C(=O)c4ccccc4C3=O)OC2=O)cc1	> 100 µM

Look at this compound and give its reported TGI. CN1C(NC(=O)c2ccc(Cl)nc2)=NS(=O)(=O)c2cc(Cl)ccc21
> 100 µM

What value of TGI has been reported for the following compound? COc1ccc(-c2cc3c(nn2)-c2ccccc2C3=O)cc1
> 100 µM

* * *

Test system: RXF 393 renal
Experiment: NCI tumour cell line growth inhibition, 48 h
measurement-type: TGI

1. COC1(OC)C2(Cl)CCC1(Cl)C(OC(C)=O)C2 (stereo not drawn)	> 100 µM

Returns the measured TGI for the input molecule. Input: CC1=CC(=O)NCCN1C
> 100 µM

Report TGI for COc1ccc(-c2nc(-c3nc4ccc(C)cc4[nH]3)c3ccccn23)cc1 please.
> 100 µM

* * *

System: HS 578T breast
Assay: NCI tumour cell line growth inhibition, 48 h
Attribute: log10 TGI
The base-10 logarithm of TGI, taken with TGI in µM, is what appears here.

// solved cases for log10 TGI follow
1) CCOC(=O)c1c(C)n(Cc2ccc(OC)cc2)c2c1cc(O)c1[nH]c3c(c12)CCCC3	1.34
2) CN1CCC(OC(=O)Oc2ccccc2)(c2ccccc2)CC1	1.73
3) O=C1NC(Nc2cccc(Cl)c2)=N/C1=C\c1ccc(Cl)c(Cl)c1	1.13
4) O=P(c1ccccc1)(c1ccccc1)C(NCc1ccccc1)c1ccc(F)cc1 (centres undefined)	1.99
5) O=C(C[C@@H](C(=O)NCc1cccc(C(F)(F)F)c1)N1C(=O)[C@@H](N2C(=O)OC[C@@H]2c2ccccc2)[C@H]1/C=C/c1ccccc1)NC1CCN(Cc2ccccc2)CC1	1.47
6) CC[C@H](C)[C@H](NC(=O)[C@H]1CCCCN1C)C(=O)N(C)[C@H](CCc1nc(C(=O)N[C@@H](Cc2ccccc2)C[C@H](C)C(=O)OC)cs1)C(C)C	0.72
7) COc1ccc(C2CC(=O)c3c(O)c(OC)c(OC)c(OC)c3O2)c(O)c1 (centres undefined)	1.69
8) COc1ccc(-c2nc(-c3nc4ccc(C)cc4[nH]3)c3ccccn23)cc1	0.78

Test system HS 578T breast; read-out log10 TGI; what value for COc1ccc(C(=O)/C=C/c2cccnc2Nc2cc(OC)c(OC)c(OC)c2)cc1 ?
1.59

What measured log10 TGI is associated with Clc1cccc(Cl)c1C1SCC2=Nc3ccccc3CN21 (centres undefined) on HS 578T breast?
1.79

Tell me reported log10 TGI for COc1cc(C(=O)O[C@H](C(N)=O)[C@]2(C)CO2)c2ccccc2c1 , tested with HS 578T breast.
1.61

HS 578T breast / log10 TGI / C[C@]12CC[C@@H]3c4ccc(Oc5nc(N6CC6)nc(N6CC6)n5)cc4CC[C@H]3[C@@H]1CCC2=O : value?
1.65

Record CC(=O)OCC1OC(N2C(c3ccccc3)=CC(c3ccccc3)C(C#N)=C2S)C(OC(C)=O)C(OC(C)=O)C1OC(C)=O (centres undefined) : what is its log10 TGI with HS 578T breast?
1.47

Lab note: need log10 TGI for C=C1C(=O)O[C@H]2[C@H]1CC/C(COC(=O)/C=C\C(=O)NCc1ccc(Cn3c(=O)sn(-c4ccc(C#N)cc4)c3=O)cc1)=C\CC[C@@]1(C)O[C@@H]21 on HS 578T breast, anyone have it?
0.45

* * *

Test system: BT-549 breast
Assay: NCI tumour cell line growth inhibition, 48 h
measurement-type: TGI

1. CCCCNC(=O)NS(=O)(=O)c1ccc(N2N=C(c3ccc(C)cc3C)CC2c2ccc(N(C)C)cc2)cc1 (stereo unspecified)	37.1 µM
2. O=C(NCCCNC(=O)c1ccc2cc(O)c(O)cc2c1)c1ccc2cc(O)c(O)cc2c1	> 100 µM
3. CCCNC(=S)N/N=C(\C)c1ccccn1	> 100 µM
4. CCCCCCCCCCC(O)C1CCC(C2CCC(C(O)CCCCC(O)CCCCCC(O)CC3=CC(C)OC3=O)O2)O1 (stereo unspecified)	> 25 µM

Look up TGI for this compound: S=C(/N=c1/sc(Nc2ccccc2)nc2sc3c(c12)CCCC3)Nc1ccccc1
> 62.5 µM

Give its TGI value. Item: CCN(CC)Cc1cc(Nc2ccnc3ccc4c(nnn4C)c23)ccc1O
37.1 µM

* * *

Consider the following compounds and their measured TGI readings.
Tested on: MDA-MB-231 breast
Test: NCI tumour cell line growth inhibition, 48 h

These solved cases illustrate the format of a correct answer.
1. O=C(O)C1C(C(=O)O)C(C(=O)O)C1C(=O)O (stereo unspecified)	> 100 µM
2. O=c1c2ccccc2nnn1-c1n[nH]c2ccccc12	> 100 µM
3. O=[N+]([O-])c1ccc2nnnn2c1	96.4 µM
4. Cn1cc(-c2csc(-c3cccc(F)c3)n2)c2cccnc21	35.3 µM
5. CCCN=C(NC(=O)c1ccc(Cl)cc1)SC	> 100 µM

Continue with the next compound.
Data request, read-out TGI, for C[C@]12CC[C@@H]3c4ccc(O)cc4C[C@@H](CCCCCCCCCS(=O)CCCC(F)(F)C(F)(F)F)[C@H]3[C@@H]1CC[C@@H]2O (stereo partly specified)
> 100 µM

* * *

TGI by entry:
Tested on: HOP-62 NSCLC
Assay: NCI tumour cell line growth inhibition, 48 h

1) COc1ccc(S(=O)(=O)N(Cc2ccc3c(n2)C=CC(C)(C)O3)C2CCC2)cc1OC	1.29 µM

Request the reported TGI associated with Cc1cc(NS(=O)(=O)c2ccc(NC(=O)c3cccc4c(=O)c5ccccc5[nH]c34)cc2)no1
50.6 µM

Quick one: TGI of S=C(/N=c1/sc(Nc2ccccc2)nc2sc3c(c12)CCCC3)Nc1ccccc1 ?
> 62.5 µM

* * *

Tested on: SW-620 colon
Assay: NCI tumour cell line growth inhibition, 48 h
Below: a set of entries, each annotated with reported TGI.

1) O=C(O)C1C(C(=O)O)C(C(=O)O)C1C(=O)O (stereo not given)	> 100 µM
2) COc1ccc(S(=O)(=O)N(Cc2ccc3c(n2)C=CC(C)(C)O3)C2CCC2)cc1OC	> 35.1 µM
3) CC(=O)OCC1OC(N2C(c3ccccc3)=CC(c3ccccc3)C(C#N)=C2S)C(OC(C)=O)C(OC(C)=O)C1OC(C)=O (stereo not given)	> 100 µM

TGI lookup needed for C/C(=N\NC(=S)N1CC2CCC(CC2)C1)c1ccncn1 , thanks.
18.4 µM

Any idea what its TGI is? The compound is COc1cc2c(/C=C3/C(=O)Nc4cccc(Cl)c43)c(Cl)n(Cc3ccccc3)c2cc1C
> 100 µM

Which TGI is reported for this compound? O=C(CC(=O)N1N=C(c2ccccc2)C(N=Nc2ccc(Cl)cc2)C1=O)Nc1ccccc1Cl (stereo not given)
> 100 µM

Can you share its TGI? I mean this compound: Cc1c(Cc2ccccc2)n(COCCCO)c(=O)[nH]c1=O
> 100 µM

Requested field: TGI. Item: CC(C)(C)OC(=O)N(CCCN(CCn1c2c(c3ccccc3c1=O)C(=O)c1ccccc1-2)C(=O)OC(C)(C)C)CCn1c2c(c3ccccc3c1=O)C(=O)c1ccccc1-2
> 50 µM

Quick check: TGI of CCCCCCCCCCCCCCCCOP(=O)(O)Oc1ccc(/C=C\c2ccc(OP(=O)(O)OCCCCCCCCCCCCCCCC)cc2)cc1 ?
> 100 µM

Find the recorded TGI belonging to COc1ccc(-c2c(C#N)c(NC(=S)NC(=O)c3ccccc3)nc3c2CCCC3)cc1OC and report it.
> 100 µM

Endpoint output: TGI of O=C1NC(Nc2cccc(Cl)c2)=N/C1=C\c1ccc(Cl)c(Cl)c1 . Value?
19.6 µM

* * *

Test system: K-562 leukemia
Assay: NCI tumour cell line growth inhibition, 48 h
Each item that follows carries a reported TGI.

Recorded results for 3 compounds are shown here.
1) CC/C(=N/O)c1ccc(Br)s1	> 100 µM
2) O=S(O)CCCCSSCCCCSSCCCCS(=O)O	> 100 µM
3) N#Cc1nc(COCCOCc2ccccc2)oc1N	> 100 µM

Quick one: TGI for Oc1cc(O)c2c(c1)O[C@H](c1cc(O)c(O)c(O)c1)[C@H](O)C2 ?
48.4 µM

Entry C#CC[C@]12CC(=O)CC[C@H]1CC(=O)C2 has what TGI?
> 100 µM

I am curious: what TGI value has been reported for CNC1C(=O)C(C)C(O)(C(CC(C)C(O)/C=C/C=C/CNC(=O)C(C)(C)C(O)\C(C)=C/C=C\C=C\Cc2cnc(C)o2)OC)C12C(=O)OC2COC (configuration not stated) (tested in a mixture with another compound) ?
5.42 µM
